# test description: Solubility determination in phosphate buffer
# Assay type: physicochemical
# experimental conditions: aqueous buffer, thermodynamic from solid; phosphate buffer pH 7.8, 37 °C; read-out: Solubility pH 7.8
property measured: solubility at 48 h (µg/mL)

chemical structure: COc1cc(/C=C/C(=O)c2ccc(NC(=O)N3CCN(c4cc5c(cc4F)c(=O)c(C(=O)O)cn5C4CC4)CC3)cc2)cc(OC)c1OC
property measured: solubility at 48 h
observed value: 150

chemical structure: O=C(/C=C/c1ccc(F)cc1)c1ccc(NC(=O)N2CCN(c3cc4c(cc3F)c(=O)c(C(=O)O)cn4C3CC3)CC2)cc1
property measured: solubility at 48 h
observed value: 180

chemical structure: COc1ccc(/C=C/C(=O)c2ccc(NC(=O)N3CCN(c4cc5c(cc4F)c(=O)c(C(=O)O)cn5C4CC4)CC3)cc2)cc1OC
property measured: solubility at 48 h
observed value: 190

chemical structure: Cc1ccc(/C=C/C(=O)c2ccc(NC(=O)N3CCN(c4cc5c(cc4F)c(=O)c(C(=O)O)cn5C4CC4)CC3)cc2)cc1
property measured: solubility at 48 h
observed value: 170

----------
Measured logD values are reported for all entries that follow.
# test description: physchem
# experimental conditions: pH 7.8
property measured: logD

chemical structure: O=C(/C=C/c1ccc(F)cc1)c1ccc(NC(=O)N2CCN(c3cc4c(cc3F)c(=O)c(C(=O)O)cn4C3CC3)CC2)cc1
property measured: logD
observed value: 0.07
//
chemical structure: O=C(/C=C/c1ccc(Cl)cc1)c1ccc(NC(=O)N2CCN(c3cc4c(cc3F)c(=O)c(C(=O)O)cn4C3CC3)CC2)cc1
property measured: logD
observed value: 0.07
//
chemical structure: O=C(/C=C/c1cccc(Cl)c1)c1ccc(NC(=O)N2CCN(c3cc4c(cc3F)c(=O)c(C(=O)O)cn4C3CC3)CC2)cc1
property measured: logD
observed value: 0.31
//
chemical structure: Cc1ccc(/C=C/C(=O)c2ccc(NC(=O)N3CCN(c4cc5c(cc4F)c(=O)c(C(=O)O)cn5C4CC4)CC3)cc2)cc1
property measured: logD
observed value: 0.4
//
chemical structure: O=C(/C=C/c1ccccc1)c1ccc(NC(=O)N2CCN(c3cc4c(cc3F)c(=O)c(C(=O)O)cn4C3CC3)CC2)cc1
property measured: logD
observed value: 0.24
//
chemical structure: O=C(/C=C/c1ccc(Br)cc1)c1ccc(NC(=O)N2CCN(c3cc4c(cc3F)c(=O)c(C(=O)O)cn4C3CC3)CC2)cc1
property measured: logD
observed value: 0.42
//
chemical structure: COc1cc(/C=C/C(=O)c2ccc(NC(=O)N3CCN(c4cc5c(cc4F)c(=O)c(C(=O)O)cn5C4CC4)CC3)cc2)cc(OC)c1OC
property measured: logD
observed value: 0.34

----------
# target: S. aureus DNA gyrase (Staphylococcus aureus, UniProt P0A0K8+P20831)
# Sequence (P20831 whole entry): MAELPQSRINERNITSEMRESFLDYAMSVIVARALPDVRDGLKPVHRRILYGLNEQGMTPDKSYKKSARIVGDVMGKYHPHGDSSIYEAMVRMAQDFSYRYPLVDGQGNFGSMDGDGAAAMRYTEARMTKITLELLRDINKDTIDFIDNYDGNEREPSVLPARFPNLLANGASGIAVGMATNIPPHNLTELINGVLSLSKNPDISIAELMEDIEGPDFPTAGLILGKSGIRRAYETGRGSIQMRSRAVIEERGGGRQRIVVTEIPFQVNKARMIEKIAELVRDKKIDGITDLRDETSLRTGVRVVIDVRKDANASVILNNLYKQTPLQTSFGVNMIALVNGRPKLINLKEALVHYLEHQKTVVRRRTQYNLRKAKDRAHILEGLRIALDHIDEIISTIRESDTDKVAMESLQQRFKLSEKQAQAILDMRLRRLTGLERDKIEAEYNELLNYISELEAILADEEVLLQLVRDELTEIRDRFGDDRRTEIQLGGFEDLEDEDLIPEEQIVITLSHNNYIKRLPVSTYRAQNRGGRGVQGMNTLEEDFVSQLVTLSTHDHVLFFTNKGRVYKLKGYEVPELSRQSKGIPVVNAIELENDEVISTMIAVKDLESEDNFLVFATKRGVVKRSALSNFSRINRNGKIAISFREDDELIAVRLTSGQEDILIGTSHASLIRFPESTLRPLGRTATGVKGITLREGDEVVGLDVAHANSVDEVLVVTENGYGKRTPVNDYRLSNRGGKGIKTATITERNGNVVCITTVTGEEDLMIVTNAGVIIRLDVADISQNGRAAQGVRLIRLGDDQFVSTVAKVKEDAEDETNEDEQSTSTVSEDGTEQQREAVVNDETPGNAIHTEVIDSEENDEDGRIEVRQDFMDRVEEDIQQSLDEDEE
# Sequence (P0A0K8 whole entry): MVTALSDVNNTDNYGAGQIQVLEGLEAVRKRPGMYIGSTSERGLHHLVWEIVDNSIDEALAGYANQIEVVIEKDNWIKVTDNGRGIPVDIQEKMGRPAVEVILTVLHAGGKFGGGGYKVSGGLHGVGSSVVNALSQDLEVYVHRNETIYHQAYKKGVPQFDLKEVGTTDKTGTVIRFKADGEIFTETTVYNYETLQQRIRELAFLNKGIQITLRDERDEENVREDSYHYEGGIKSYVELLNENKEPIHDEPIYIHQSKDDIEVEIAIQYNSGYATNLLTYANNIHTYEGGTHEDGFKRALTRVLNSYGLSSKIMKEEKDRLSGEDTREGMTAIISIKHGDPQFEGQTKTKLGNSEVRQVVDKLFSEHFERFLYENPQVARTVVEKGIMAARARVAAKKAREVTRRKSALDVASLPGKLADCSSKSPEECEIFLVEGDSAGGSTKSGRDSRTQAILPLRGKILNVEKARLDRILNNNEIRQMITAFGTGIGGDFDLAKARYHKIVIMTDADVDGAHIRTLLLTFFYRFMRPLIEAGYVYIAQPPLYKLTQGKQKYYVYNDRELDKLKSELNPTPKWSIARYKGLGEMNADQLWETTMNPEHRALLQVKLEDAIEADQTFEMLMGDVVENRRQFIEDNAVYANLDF
# test description: Staphylococcus aureus DNA gyrase supercoiling assay
# Type: biochemical
# experimental conditions: supercoiling of relaxed pBR322, 37 °C, 30 min; read-out: S. aureus DNA gyrase IC50 ± SD
property measured: IC50 (nM)

chemical structure: COc1cc(-c2nc(SCC(=O)N3CCN(c4cc5c(cc4F)c(=O)c(C(=O)O)cn5C4CC4)CC3)[nH]c(=O)c2C#N)cc(OC)c1OC
unit spec: nM
observed value: 1410

chemical structure: N#Cc1c(-c2ccccc2)nc(SCC(=O)N2CCN(c3cc4c(cc3F)c(=O)c(C(=O)O)cn4C3CC3)CC2)[nH]c1=O
unit spec: nM
observed value: 4550

chemical structure: Cc1ccc(-c2nc(SCC(=O)N3CCN(c4cc5c(cc4F)c(=O)c(C(=O)O)cn5C4CC4)CC3)[nH]c(=O)c2C#N)cc1
unit spec: nM
observed value: 3500

chemical structure: O=C(/C=C/c1ccccc1)c1ccc(NC(=O)N2CCN(c3cc4c(cc3F)c(=O)c(C(=O)O)cn4C3CC3)CC2)cc1
unit spec: nM
observed value: 3470

chemical structure: O=C(/C=C/c1ccc(Cl)cc1)c1ccc(NC(=O)N2CCN(c3cc4c(cc3F)c(=O)c(C(=O)O)cn4C3CC3)CC2)cc1
unit spec: nM
observed value: 3000

chemical structure: Cc1ccc(/C=C/C(=O)c2ccc(NC(=O)N3CCN(c4cc5c(cc4F)c(=O)c(C(=O)O)cn5C4CC4)CC3)cc2)cc1
unit spec: nM
observed value: 1770

chemical structure: COc1ccc(-c2nc(SCC(=O)N3CCN(c4cc5c(cc4F)c(=O)c(C(=O)O)cn5C4CC4)CC3)[nH]c(=O)c2C#N)cc1OC
unit spec: nM
observed value: 1460

chemical structure: N#Cc1c(-c2ccc(Cl)cc2)nc(SCC(=O)N2CCN(c3cc4c(cc3F)c(=O)c(C(=O)O)cn4C3CC3)CC2)[nH]c1=O
unit spec: nM
observed value: 1570

chemical structure: O=C(/C=C/c1ccc(F)cc1)c1ccc(NC(=O)N2CCN(c3cc4c(cc3F)c(=O)c(C(=O)O)cn4C3CC3)CC2)cc1
unit spec: nM
observed value: 3810

chemical structure: N#Cc1c(-c2cccc(Cl)c2)nc(SCC(=O)N2CCN(c3cc4c(cc3F)c(=O)c(C(=O)O)cn4C3CC3)CC2)[nH]c1=O
unit spec: nM
observed value: 1270

chemical structure: COc1ccc(-c2nc(SCC(=O)N3CCN(c4cc5c(cc4F)c(=O)c(C(=O)O)cn5C4CC4)CC3)[nH]c(=O)c2C#N)cc1
unit spec: nM
observed value: 7590

chemical structure: N#Cc1c(-c2ccc(F)cc2)nc(SCC(=O)N2CCN(c3cc4c(cc3F)c(=O)c(C(=O)O)cn4C3CC3)CC2)[nH]c1=O
unit spec: nM
observed value: 1010

chemical structure: O=C(/C=C/c1cccc(Cl)c1)c1ccc(NC(=O)N2CCN(c3cc4c(cc3F)c(=O)c(C(=O)O)cn4C3CC3)CC2)cc1
unit spec: nM
observed value: 231

These entries and their values trace back to paper PMC10415461.
